Where these numbers come from: patent US11440923B2

Tested on: SUDHL10 cells
Assay: Induction of cytotoxicity in SUDHL10 cells (Assay 6)
Assay type: cell-based
Conditions: read-out: Cytotox SUDHL10 IC50 (median); 5 h, CellTiter-Glo
Description: Assay 6 Induction of Cytotoxicity Upon Treatment of Cells with Selected Compounds In principle, compounds that induce apoptosis will concomitantly induce cell cytotoxicity. Therefore, cytotoxicity assays were run in parallel in SUDHL5 and SUDHL10 cells. As a control, medium without cells was also added to the plate. Cells were incubated in a humidified incubator at 37° C. overnight. […] Finally, luminescence was read at 0.1 ms, with a gain of 3000 using the PHERAstar FS microplate reader (BMG Labtech).
For each record, write down the corresponding IC50.
Give the value, in units of µM, as a plain number.

Record request: IC50 value, item Cc1c2c(nn1C)C(C)OCCCCn1c(C(=O)O)c(CCCOc3cccc4ccccc34)c3cccc-2c31 (single isomer, unassigned; stereoisomer 2) [Example 3]
26

Record request: IC50 value, item Cc1c2c(nn1C)C(C)OCCCCn1c(C(=O)O)c(CCCOc3cccc4ccccc34)c3cccc-2c31 (single isomer, unassigned; stereoisomer 1) [Example 2]
2.5

----------
Tested on: SUDHL10 cells
Experiment: Antiproliferation assay SUDHL10 (Assay 7)
Assay type: cell-based
Settings: Homo sapiens, SU-DHL10; 72 h, CellTiter-Glo; read-out: Antiproli SUDHL10 IC50 (median)
Method: Assessment of the Anti-Proliferative Effect of Compounds in Different Cell Lines The impact of compounds on the proliferation of different cell lines was assessed using the CellTiter-Glo® Luminescent Cell Viability reagent from Promega (G7573). In parallel, cells were plated in a reference (day 0) plate for time zero determination. […] After 72 h incubation, the treated plates were measured in the same way as the day 0 plate mentioned above. […]
For each record, write down the corresponding pIC50.
Entry type: numeric. Quantity: pIC50, the -log10 of concentration in molar units.

Record request: pIC50 value, item CCc1c2c(nn1C)C(CCN1CCOCC1)OCCCCn1c(C(=O)O)c(CCCOc3cccc4ccccc34)c3ccc(F)c-2c31 (racemic) [Example 10]
6.85

Record request: pIC50 value, item Cc1c2c(nn1C)C(CCN1CCOCC1)OCCCCn1c(C(=O)O)c(CCCOc3cccc4ccccc34)c3ccc(F)c-2c31 (racemic) [Example 7]
6.80

Record request: pIC50 value, item Cc1c2c(nn1C)C(C)OCCCCn1c(C(=O)O)c(CCCOc3cccc4ccccc34)c3cccc-2c31 (racemic) [Example 1]
5.15

----------
Test system: SUDHL5 cells
Assay: Induction of cytotoxicity in SUDHL5 cells (Assay 6)
Assay type: cell-based
Conditions: 5 h, CellTiter-Glo; read-out: Cytotox SUDHL5 IC50 (median)
For each record, write down the corresponding IC50.
Give the value, in units of nM, as a plain number.

Record request: IC50 value, item CCc1c2c(nn1C)C(CCN1CCOCC1)OCC(F)(F)CCn1c(C(=O)O)c(CCCOc3cccc4cc(F)ccc34)c3ccc(Cl)c-2c31 (single isomer, unassigned; (-)) [Example 91]
790

Record request: IC50 value, item CCc1c2c(nn1C)C(C1CC1)OCCCCn1c(C(=O)O)c(CCCOc3cccc4cc(F)ccc34)c3ccc(Cl)c-2c31 (single isomer, unassigned; enantiomer 2) [Example 40]
20000

Record request: IC50 value, item CCc1c2c(nn1C)C(CCN1CCN(C)CC1)OCCCCn1c(C(=O)O)c(CCCOc3cccc4cc(F)ccc34)c3ccc(Cl)c-2c31 (single isomer, unassigned; stereoisomer 3) [Example 72]
96

Record request: IC50 value, item CCc1c2c(nn1C)C(CC(C)(C)O)OCCCCn1c(C(=O)O)c(CCCOc3cccc4cc(F)ccc34)c3ccc(Cl)c-2c31 (single isomer, unassigned; enantiomer 1) [Example 53]
95

Record request: IC50 value, item CCc1c2c(nn1C)C(CCC1CCOCC1)OCCCCn1c(C(=O)O)c(CCCOc3cccc4cc(F)ccc34)c3ccc(Cl)c-2c31 (single isomer, unassigned; enantiomer 2) [Example 62]
6300

Record request: IC50 value, item CCc1c2c(nn1C)C1CCCN1CCCCn1c(C(=O)O)c(CCCOc3cccc4cc(F)ccc34)c3ccc(Cl)c-2c31 (racemic) [Example 104]
340

Record request: IC50 value, item CCc1c2c(nn1C)C(CCN1CCOCC1)N(C)CCCCn1c(C(=O)O)c(CCCOc3cccc4ccccc34)c3ccc(Cl)c-2c31 (racemic) [Example 100]
340

Record request: IC50 value, item CCc1c2c(nn1C)C(CCN(C)C)OCCCCn1c(C(=O)O)c(CCCOc3cccc4cc(F)ccc34)c3ccc(Cl)c-2c31 (single isomer, unassigned) [Example 83]
270

Record request: IC50 value, item CCc1c2c(nn1C)C(C1CC1)OCCCCn1c(C(=O)O)c(CCCOc3cccc4cc(F)ccc34)c3ccc(Cl)c-2c31 (single isomer, unassigned; enantiomer 1) [Example 39]
1000

Record request: IC50 value, item Cc1c2c(nn1C)C(CCN1CCOCC1)OCCCCn1c(C(=O)O)c(CCCOc3cccc4ccccc34)c3cccc-2c31 (single isomer, unassigned; stereoisomer 1) [Example 5]
340

----------
Tested on: SUDHL10 cells
Assay: Induction of cytotoxicity in SUDHL10 cells (Assay 6)
Assay type: cell-based
Settings: 5 h, CellTiter-Glo; read-out: Cytotox SUDHL10 IC50 (median)
result_type: IC50 (nM)
Give the value, in units of nM, as a plain number.

Record request: IC50 value, item CCc1c2c(nn1C)C(C1CC1)OCCCCn1c(C(=O)O)c(CCCOc3cccc4cc(F)ccc34)c3ccc(Cl)c-2c31 (single isomer, unassigned; enantiomer 2) [Example 40]
29000

Record request: IC50 value, item CCc1c2c(nn1C)C(CCN1CC(F)(F)C1)OCCCCn1c(C(=O)O)c(CCCOc3cccc4cc(F)ccc34)c3ccc(Cl)c-2c31 (single isomer, unassigned; (+)) [Example 78]
12

Record request: IC50 value, item CCc1c2c(nn1C)C1CCCN1CCCCn1c(C(=O)O)c(CCCOc3cccc4cc(F)ccc34)c3ccc(Cl)c-2c31 (racemic) [Example 104]
430

Record request: IC50 value, item CCc1c2c(nn1C)C(CCN(C)C)OCCCCn1c(C(=O)O)c(CCCOc3cccc4cc(F)ccc34)c3ccc(Cl)c-2c31 (single isomer, unassigned) [Example 82]
3100

Record request: IC50 value, item Cc1c2c(nn1C)C(CCN1CCOCC1)OCCCCn1c(C(=O)O)c(CCCOc3cccc4ccccc34)c3cccc-2c31 (single isomer, unassigned; stereoisomer 2) [Example 6]
29000

Record request: IC50 value, item CCc1c2c(nn1C)C(CCCN1CCOCC1)OCCCCn1c(C(=O)O)c(CCCOc3cccc4cc(F)ccc34)c3ccc(Cl)c-2c31 (single isomer, unassigned; enantiomer 2) [Example 67]
4900

Record request: IC50 value, item Cc1c2c(nn1C)C(CCO)OCCCCn1c(C(=O)O)c(CCCOc3cccc4ccccc34)c3ccc(Cl)c-2c31 (single isomer, unassigned; enantiomer 1) [Example 31]
350

Record request: IC50 value, item Cc1c2c(nn1C)C(CCN1CCOCC1)OCCCCn1c(C(=O)O)c(CCCOc3cccc4ccccc34)c3ccc(Cl)c-2c31 (single isomer, unassigned; enantiomer 2) [Example 15]
9700

Record request: IC50 value, item CCc1c2c(nn1C)C1CCCN1CCCCn1c(C(=O)O)c(CCCOc3cccc4cc(F)ccc34)c3ccc(Cl)c-2c31 (single isomer, unassigned; (-)) [Example 106]
5700

Record request: IC50 value, item CCc1c2c(nn1C)C1CCCN1CCCCn1c(C(=O)O)c(CCCOc3cccc4cc(F)ccc34)c3ccc(Cl)c-2c31 (single isomer, unassigned; (+)) [Example 105]
290

Record request: IC50 value, item CCc1c2c(nn1C)C(C(F)(F)F)OCCCCn1c(C(=O)O)c(CCCOc3cccc4ccccc34)c3ccc(Cl)c-2c31 (single isomer, unassigned; enantiomer 1) [Example 33]
3700

Record request: IC50 value, item CCc1c2c(nn1C)C(CCN1CCOCC1)N(C)CCCCn1c(C(=O)O)c(CCCOc3cccc4ccccc34)c3ccc(Cl)c-2c31 (racemic) [Example 100]
320

Record request: IC50 value, item CCc1c2c(nn1C)C(CCCN1CCOCC1)OCCCCn1c(C(=O)O)c(CCCOc3cccc4cc(F)ccc34)c3ccc(Cl)c-2c31 (single isomer, unassigned; enantiomer 1) [Example 66]
55

Record request: IC50 value, item CCc1c2c(nn1C)C(CCC1CCOCC1)OCCCCn1c(C(=O)O)c(CCCOc3cccc4cc(F)ccc34)c3ccc(Cl)c-2c31 (single isomer, unassigned; enantiomer 1) [Example 61]
29

Record request: IC50 value, item CCc1c2c(nn1C)C(CCC(C)(C)O)OCCCCn1c(C(=O)O)c(CCCOc3cccc4cc(F)ccc34)c3ccc(Cl)c-2c31 (single isomer, unassigned; enantiomer 1) [Example 75]
9.7

Record request: IC50 value, item CCc1c2c(nn1C)C(CCN1CCOCC1)OCCCCn1c(C(=O)O)c(CCCOc3cccc4cc(F)ccc34)c3ccc(Cl)c-2c31 (single isomer, unassigned; enantiomer 1) [Example 23]
9.7

Record request: IC50 value, item CCc1c2c(nn1C)C(CCN(C)C)OCCCCn1c(C(=O)O)c(CCCOc3cccc4cc(F)ccc34)c3ccc(Cl)c-2c31 (single isomer, unassigned) [Example 85]
2000

Record request: IC50 value, item CCc1c2c(nn1C)[C@@H](CCN1CCOCC1)OCCCCn1c(C(=O)O)c(CCCOc3cccc4cc(F)ccc34)c3ccc(Cl)c-2c31 [Example 47]
7.9

Record request: IC50 value, item CCc1c2c(nn1C)C(CCN(C)C)OCCCCn1c(C(=O)O)c(CCCOc3cccc4cc(F)ccc34)c3ccc(Cl)c-2c31 (single isomer, unassigned) [Example 84]
4400

Record request: IC50 value, item CCc1c2c(nn1C)C(CCN1CCOCC1)OCCCCn1c(C(=O)O)c(CCCOc3cccc4cc(F)ccc34)c3ccc(Cl)c-2c31 (single isomer, unassigned; enantiomer 2) [Example 24]
6600
